TARGET: Cytochrome P450 2D6 (Homo sapiens) (UniProt P10635)
Sequence (P10635 whole entry, looked up): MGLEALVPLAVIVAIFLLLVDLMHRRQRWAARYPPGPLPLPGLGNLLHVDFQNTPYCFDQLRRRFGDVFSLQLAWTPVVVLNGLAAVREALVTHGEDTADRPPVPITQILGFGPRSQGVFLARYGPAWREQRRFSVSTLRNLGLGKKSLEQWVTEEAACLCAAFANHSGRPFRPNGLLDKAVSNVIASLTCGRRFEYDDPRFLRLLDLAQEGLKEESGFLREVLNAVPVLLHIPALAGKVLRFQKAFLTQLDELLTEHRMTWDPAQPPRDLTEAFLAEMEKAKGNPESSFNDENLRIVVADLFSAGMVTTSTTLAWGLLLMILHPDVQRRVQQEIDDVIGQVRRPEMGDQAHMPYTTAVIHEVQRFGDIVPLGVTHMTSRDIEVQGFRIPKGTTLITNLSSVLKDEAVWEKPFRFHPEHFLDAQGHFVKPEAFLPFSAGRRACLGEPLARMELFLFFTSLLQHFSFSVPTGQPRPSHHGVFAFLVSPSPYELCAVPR
EXPERIMENT DESCRIPTION: Cytochrome panel assay with activity outcomes
CONDITION SET: recombinant CYP, pro-luciferin dealkylation, luminescence, p450-cyp2d6; series mostly up to 57.1 µM
Out of some 16,000 compounds screened, about 2,600 (16%) were called active. Another 20% or so got no clear call; they are omitted. Not all results are given here.
OUTCOME MEASURE: AC50

COC(=O)C(NC(=O)c1ccc(Cl)cc1)(Nc1nc(C)cs1)C(F)(F)F (centres undefined)    inactive
O=C(O)c1ccc2c3c1cccc3c(=O)n1c3ccccc3nc21    15.8 µM (active)
O=C(CSCc1ccccc1Cl)NNC(=O)c1ccccc1    inactive
COc1ccc(NC(=O)/C(=C\c2cc(OC)c(OC)cc2[N+](=O)[O-])NC(=O)c2ccccc2)cc1    inactive
